system: Mus musculus; assay: % Pu(IV) excreted at 4-24 hr in urine under the effect of 30uM/kg(po, gastric intubation) of ligand administered 3 min after iv injection of Pu(IV) citrate

Molecular string	ID / %
Cn1ccc(C(=O)NCCN(CCNC(=O)c2ccn(C)c(=O)c2O)CCNC(=O)c2ccn(C)c(=O)c2O)c(O)c1=O	21
CC(=O)N(O)CCCCCNC(=O)CCC(=O)N(O)CCCCCNC(=O)CCC(=O)N(O)CCCCCNC(=O)c1ccn(C)c(=O)c1O	20
Cn1ccc(C(=O)NCCN(CCCN(CCNC(=O)c2ccn(C)c(=O)c2O)CCNC(=O)c2ccn(C)c(=O)c2O)CCNC(=O)c2ccn(C)c(=O)c2O)c(O)c1=O	33
Cn1ccc(C(=O)NCCOCCNC(=O)c2ccn(C)c(=O)c2O)c(O)c1=O	7.8
Cn1ccc(C(=O)NCCCCCCNC(=O)c2ccn(C)c(=O)c2O)c(O)c1=O	6.9
Cn1ccc(C(=O)NCCCNC(=O)c2ccn(C)c(=O)c2O)c(O)c1=O	11
Cn1ccc(C(=O)NCCCN(CCCNC(=O)c2ccn(C)c(=O)c2O)CCCNC(=O)c2ccn(C)c(=O)c2O)c(O)c1=O	3.6
O=C(NCCCN(CCCCN(CCCNC(=O)c1cccc(=O)n1O)C(=O)c1cccc(=O)n1O)C(=O)c1cccc(=O)n1O)c1cccc(=O)n1O	2.7
Cn1ccc(C(=O)NCc2cc(CNC(=O)c3ccn(C)c(=O)c3O)cc(CNC(=O)c3ccn(C)c(=O)c3O)c2)c(O)c1=O	6
Cn1ccc(C(=O)NCCN(CCCCN(CCNC(=O)c2ccn(C)c(=O)c2O)CCNC(=O)c2ccn(C)c(=O)c2O)CCNC(=O)c2ccn(C)c(=O)c2O)c(O)c1=O	39
Cn1ccc(C(=O)NCCN(CCNC(=O)c2ccn(C)c(=O)c2O)CCN(CCNC(=O)c2ccn(C)c(=O)c2O)CCNC(=O)c2ccn(C)c(=O)c2O)c(O)c1=O	27
Cn1ccc(C(=O)NCCCCCNC(=O)c2ccn(C)c(=O)c2O)c(O)c1=O	13
Cn1ccc(C(=O)NCCCCNC(=O)c2ccn(C)c(=O)c2O)c(O)c1=O	8.8
